- System: A549 cells
- Protocol description: Bromodeoxyuridine (BrdU) proliferation assay
- Assay type: cell-based, human
- Measurement context: Homo sapiens, A549, 48 h, BrdU ELISA 48 hours after addition of compound; tested 0.03-10 uM; cell line not given (A549 method; SW-480 and MDA-MB-231 also used); read-out: Assay Result (IC50μM)
Measure name: IC50 (µM)
Reply with just the number (in µM).

Would you please look over these solved cases?
• S=C(NCCN1CCCCC1)NNc1ncnc2cc(-c3ccccc3)sc12 = 18.6
• Cc1cccc(-c2cc3ncnc(NNC(=S)NC[C@@H]4CCCO4)c3s2)c1 = 0.151
• COC(=O)CCNC(=S)NNc1ncnc2cc(-c3ccccc3)sc12 = 0.187

We next turn to a different compound, shown below.
Observed IC50 on A549 cells, entry `COCCNC(=S)NNc1ncnc2cc(-c3ccccc3Cl)sc12` , equals 1.47
